- Tested on: MDA-MB-231
- ASSAY_TEXT: relative cell viability, compound + RSL3, vs DMSO (fraction of DMSO control); higher = less growth inhibition
- COND: 72 h
Counter-ions that a name gives are not always drawn.
Each record here notes measured relative cell viability.

>  <COMPOUND>
CCN(CC)CCN(Cc1ccc(-c2ccc(C(F)(F)F)cc2)cc1)C(=O)Cn1c(SCc2ccc(F)cc2)nc(=O)c2c1CCC2 [Darapladib] + COC(=O)c1ccc([C@H]2c3[nH]c4ccccc4c3C[C@H](C(=O)OC)N2C(=O)CCl)cc1 [RSL3]

>  <MEASURED_ON>
MDA-MB-231

>  <relative cell viability>
0.232

$$$$
>  <COMPOUND>
O=C(O)Cn1nnc(-c2cc(N3CCC(Oc4cc(F)ccc4Br)CC3)no2)n1 + COC(=O)c1ccc([C@H]2c3[nH]c4ccccc4c3C[C@H](C(=O)OC)N2C(=O)CCl)cc1 [RSL3]

>  <MEASURED_ON>
MDA-MB-231

>  <relative cell viability>
0.632

$$$$
>  <COMPOUND>
O=C(O)CC[C@H](O)C(=O)O [L-2-Hydroxyglutaric acid disodium] + COC(=O)c1ccc([C@H]2c3[nH]c4ccccc4c3C[C@H](C(=O)OC)N2C(=O)CCl)cc1 [RSL3]

>  <MEASURED_ON>
MDA-MB-231

>  <relative cell viability>
0.76

$$$$
>  <COMPOUND>
CCCCCCCCCCOc1ccc(C(=O)Nc2cc(C(=O)NCCCC)ccc2SC)cc1 + COC(=O)c1ccc([C@H]2c3[nH]c4ccccc4c3C[C@H](C(=O)OC)N2C(=O)CCl)cc1 [RSL3]

>  <MEASURED_ON>
MDA-MB-231

>  <relative cell viability>
0.421

$$$$
>  <COMPOUND>
C=CC[S+]([O-])C[C@H](N)C(=O)O (some centres undefined) [Alliin] + COC(=O)c1ccc([C@H]2c3[nH]c4ccccc4c3C[C@H](C(=O)OC)N2C(=O)CCl)cc1 [RSL3]

>  <MEASURED_ON>
MDA-MB-231

>  <relative cell viability>
0.704

$$$$
>  <COMPOUND>
NC(CO)C(=O)O (racemic) [DL-Serine] + COC(=O)c1ccc([C@H]2c3[nH]c4ccccc4c3C[C@H](C(=O)OC)N2C(=O)CCl)cc1 [RSL3]

>  <MEASURED_ON>
MDA-MB-231

>  <relative cell viability>
0.594

$$$$
>  <COMPOUND>
O=C(O)c1cccnc1Nc1cccc(C(F)(F)F)c1 [Niflumic acid] + COC(=O)c1ccc([C@H]2c3[nH]c4ccccc4c3C[C@H](C(=O)OC)N2C(=O)CCl)cc1 [RSL3]

>  <MEASURED_ON>
MDA-MB-231

>  <relative cell viability>
0.53

$$$$
>  <COMPOUND>
CN(CCOc1ccc(CC2SC(=O)NC2=O)cc1)c1ccccn1 (centres undefined) [Rosiglitazone maleate] + COC(=O)c1ccc([C@H]2c3[nH]c4ccccc4c3C[C@H](C(=O)OC)N2C(=O)CCl)cc1 [RSL3]

>  <MEASURED_ON>
MDA-MB-231

>  <relative cell viability>
0.516

$$$$
>  <COMPOUND>
O=C(c1c2ccccc2cc2ccccc12)N1CCC(N2CCC[C@@H](C(=O)N3CCOCC3)C2)CC1 + COC(=O)c1ccc([C@H]2c3[nH]c4ccccc4c3C[C@H](C(=O)OC)N2C(=O)CCl)cc1 [RSL3]

>  <MEASURED_ON>
MDA-MB-231

>  <relative cell viability>
0.366

$$$$
>  <COMPOUND>
Cc1cc([N+](=O)[O-])ccc1NS(=O)(=O)c1cc(Cl)ccc1Cl + COC(=O)c1ccc([C@H]2c3[nH]c4ccccc4c3C[C@H](C(=O)OC)N2C(=O)CCl)cc1 [RSL3]

>  <MEASURED_ON>
MDA-MB-231

>  <relative cell viability>
0.515

$$$$
>  <COMPOUND>
CC1=C(/C=C/C(C)=C/C=C/C(C)=C/C=C/C=C(C)/C=C/C=C(C)/C=C/C2=C(C)C(=O)[C@@H](O)CC2(C)C)C(C)(C)C[C@H](O)C1=O [Astaxanthin] + COC(=O)c1ccc([C@H]2c3[nH]c4ccccc4c3C[C@H](C(=O)OC)N2C(=O)CCl)cc1 [RSL3]

>  <MEASURED_ON>
MDA-MB-231

>  <relative cell viability>
0.689

$$$$
>  <COMPOUND>
O=C(O)CN(CC(=O)O)c1ccccc1OCCOc1ccccc1N(CC(=O)O)CC(=O)O + COC(=O)c1ccc([C@H]2c3[nH]c4ccccc4c3C[C@H](C(=O)OC)N2C(=O)CCl)cc1 [RSL3]

>  <MEASURED_ON>
MDA-MB-231

>  <relative cell viability>
0.581

$$$$
>  <COMPOUND>
COc1ccc2c(=O)c(-c3ccccc3)coc2c1 [7-Methoxyisoflavone] + COC(=O)c1ccc([C@H]2c3[nH]c4ccccc4c3C[C@H](C(=O)OC)N2C(=O)CCl)cc1 [RSL3]

>  <MEASURED_ON>
MDA-MB-231

>  <relative cell viability>
0.419

$$$$
>  <COMPOUND>
COc1ccc([C@@H]2OC[C@H]3[C@@H]2CO[C@@H]3c2ccc(O[C@@H]3O[C@H](CO)[C@@H](O)[C@H](O)[C@H]3O)c(OC)c2)cc1OC [Forsythin] + COC(=O)c1ccc([C@H]2c3[nH]c4ccccc4c3C[C@H](C(=O)OC)N2C(=O)CCl)cc1 [RSL3]

>  <MEASURED_ON>
MDA-MB-231

>  <relative cell viability>
0.664

$$$$
>  <COMPOUND>
CC(C)c1onc(-c2c(Cl)cccc2Cl)c1COc1ccc(/C=C/c2cccc(C(=O)O)c2)c(Cl)c1 + COC(=O)c1ccc([C@H]2c3[nH]c4ccccc4c3C[C@H](C(=O)OC)N2C(=O)CCl)cc1 [RSL3]

>  <MEASURED_ON>
MDA-MB-231

>  <relative cell viability>
0.699

$$$$
>  <COMPOUND>
OC[C@H]1O[C@@H](Oc2cc(O)cc(/C=C/c3ccc(O)cc3)c2)[C@H](O)[C@@H](O)[C@@H]1O [Polydatin] + COC(=O)c1ccc([C@H]2c3[nH]c4ccccc4c3C[C@H](C(=O)OC)N2C(=O)CCl)cc1 [RSL3]

>  <MEASURED_ON>
MDA-MB-231

>  <relative cell viability>
0.608

$$$$
>  <COMPOUND>
CN(CCOc1ccc(CC2SC(=O)NC2=O)cc1)c1ccccn1 (centres undefined) [Rosiglitazone HCl] + COC(=O)c1ccc([C@H]2c3[nH]c4ccccc4c3C[C@H](C(=O)OC)N2C(=O)CCl)cc1 [RSL3]

>  <MEASURED_ON>
MDA-MB-231

>  <relative cell viability>
0.714

$$$$
>  <COMPOUND>
CC(C)=CCC[C@](C)(O[C@@H]1O[C@H](CO)[C@@H](O)[C@H](O)[C@H]1O)[C@H]1CC[C@]2(C)[C@@H]1[C@H](O)C[C@@H]1[C@@]3(C)CC[C@H](O[C@@H]4O[C@H](CO)[C@@H](O)[C@H](O)[C@H]4O[C@@H]4O[C@H](CO)[C@@H](O)[C@H](O)[C@H]4O)C(C)(C)[C@@H]3CC[C@]12C [Ginsenoside Rd] + COC(=O)c1ccc([C@H]2c3[nH]c4ccccc4c3C[C@H](C(=O)OC)N2C(=O)CCl)cc1 [RSL3]

>  <MEASURED_ON>
MDA-MB-231

>  <relative cell viability>
0.478

$$$$
>  <COMPOUND>
CC(C)(O)c1ccccc1CC[C@@H](SCC1(CC(=O)O)CC1)c1cccc(/C=C/c2ccc3ccc(Cl)cc3n2)c1 [Montelukast] + COC(=O)c1ccc([C@H]2c3[nH]c4ccccc4c3C[C@H](C(=O)OC)N2C(=O)CCl)cc1 [RSL3]

>  <MEASURED_ON>
MDA-MB-231;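 further: breast cancer cell viability read out with the CCK-8 kit after co-treatment of each compound with the ferroptosis inducer RSL3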

>  <relative cell viability>
0.484

$$$$
